Measured inhibition at 1 µM of individual entries
# target-system: adrenergic α2C receptor (Homo sapiens, UniProt P18825)
# Sequence (P18825 whole entry): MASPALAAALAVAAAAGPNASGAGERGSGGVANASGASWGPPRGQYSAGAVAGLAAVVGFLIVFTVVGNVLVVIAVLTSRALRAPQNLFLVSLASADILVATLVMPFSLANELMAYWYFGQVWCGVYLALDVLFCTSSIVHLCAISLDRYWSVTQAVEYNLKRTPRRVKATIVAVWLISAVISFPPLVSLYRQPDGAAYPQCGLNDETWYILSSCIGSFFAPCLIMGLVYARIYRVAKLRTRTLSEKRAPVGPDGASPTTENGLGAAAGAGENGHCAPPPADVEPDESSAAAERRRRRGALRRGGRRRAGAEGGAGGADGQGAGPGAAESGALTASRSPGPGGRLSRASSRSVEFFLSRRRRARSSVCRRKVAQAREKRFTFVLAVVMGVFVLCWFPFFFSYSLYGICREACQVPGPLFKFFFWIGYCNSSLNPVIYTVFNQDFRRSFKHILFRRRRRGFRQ
# assay-remarks: Binding assay α2C (h), [3H]RX 821002, CHO cells
# Parameters: expressed in transfected cells; host or cells: CHO cells
# assay-setup: read-out: α2C [%]
Give the number; % is assumed, so skip it.

Please review the following examples before continuing.
Cc1cccc(S(=O)(=O)NCCCN2CCC(c3noc4cc(F)ccc34)CC2)c1    100
Cc1cccc(S(=O)(=O)NCCCCN2CCC(c3noc4cc(F)ccc34)CC2)c1    100
O=S(=O)(NCCCCN1CCC(c2noc3cc(F)ccc23)CC1)c1cc2ccc(Cl)cc2s1    108
O=S(=O)(NCCCCN1CCN(c2noc3ccccc23)CC1)c1ccc2ccccc2c1    100
O=S(=O)(NCCCN1CCC(c2noc3cc(F)ccc23)CC1)c1cccc2ccccc12    99

Let us examine a further case.
*Q* Entry O=S(=O)(NCCCCN1CCN(c2nsc3ccccc23)CC1)c1csc2ccccc12 : reported inhibition at 1 µM = ?
*A* 100

###

# target-system: serotonine transporter (SERT) receptor (Homo sapiens)
# Construct: expressed in transfected cells; host or cells: CHO cells
# assay-remarks: Binding assay SERT (h), [3H]imipramine, CHO cells
# assay-setup: read-out: SERT [%]
Measured inhibition at 1 µM of individual entries
Give the number; % is assumed, so skip it.

Please review the following examples before continuing.
COc1cccc(S(=O)(=O)NCCCN2CCC(c3noc4cc(F)ccc34)CC2)c1    18
COc1cccc(S(=O)(=O)NCCCCN2CCN(c3nsc4ccccc34)CC2)c1    13
O=S(=O)(NCCCCN1CCC(c2noc3cc(F)ccc23)CC1)c1cnc2ccccn12    16

*Q* Give serotonine transporter (SERT) receptor (Homo sapiens) inhibition at 1 µM for O=S(=O)(NCCCCN1CCN(c2nsc3ccccc23)CC1)c1ccc(Cl)cc1
*A* 2

*Q* Repeat for the following compound: Cc1[nH]c2ccc(Cl)cc2c1C1=CCN(CCCCNS(=O)(=O)c2ccc(F)cc2)CC1
*A* 14

*Q* Repeat for the following compound: Cc1[nH]c2ccc(Cl)cc2c1C1=CCN(CCCNS(=O)(=O)c2ccc(Cl)cc2)CC1
*A* 44

*Q* Repeat for the following compound: O=S(=O)(NCCCCN1CCN(c2cccc3c2OCCO3)CC1)c1cccc(Cl)c1
*A* -15

*Q* Repeat for the following compound: Cc1cccc(S(=O)(=O)NCCN2CCC(c3noc4cc(F)ccc34)CC2)c1
*A* 20

###

# target-system: serotonine transporter (SERT) receptor (Homo sapiens, UniProt P31645)
# Construct: expressed in transfected cells; host or cells: CHO cells
# Sequence (P31645 whole entry): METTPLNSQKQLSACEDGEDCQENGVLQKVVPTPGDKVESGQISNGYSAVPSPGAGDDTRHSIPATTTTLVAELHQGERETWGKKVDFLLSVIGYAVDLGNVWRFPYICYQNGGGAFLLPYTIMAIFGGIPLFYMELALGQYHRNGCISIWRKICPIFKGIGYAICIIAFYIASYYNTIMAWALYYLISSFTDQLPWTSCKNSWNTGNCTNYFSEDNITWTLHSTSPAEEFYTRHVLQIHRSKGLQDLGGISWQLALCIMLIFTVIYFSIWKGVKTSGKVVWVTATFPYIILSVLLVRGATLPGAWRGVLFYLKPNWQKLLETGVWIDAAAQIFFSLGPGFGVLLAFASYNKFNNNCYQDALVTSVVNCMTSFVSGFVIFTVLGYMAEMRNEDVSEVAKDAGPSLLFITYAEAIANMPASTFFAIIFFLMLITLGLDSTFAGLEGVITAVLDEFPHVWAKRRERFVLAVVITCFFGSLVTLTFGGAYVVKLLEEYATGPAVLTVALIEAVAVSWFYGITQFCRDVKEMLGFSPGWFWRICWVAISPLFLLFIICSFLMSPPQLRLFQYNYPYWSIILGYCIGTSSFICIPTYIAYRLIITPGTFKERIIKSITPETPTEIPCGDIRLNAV
# assay-remarks: Binding assay SERT (h), [3H]imipramine, CHO cells
# assay-setup: read-out: SERT [%]
// label = 1 if inhibition at 1 µM is not less than 20%, otherwise -1

O=S(=O)(NCCCCN1CCN(c2nsc3ccccc23)CC1)c1ccc(F)c(F)c1    -1

*Q* Say whether O=S(=O)(NCCCCN1CCN(c2nsc3ccccc23)CC1)c1ccc2ccccc2c1 shows inhibition at 1 µM of 20% or more.
*A* 1

*Q* Repeat for the following compound: O=S(=O)(NCCCCN1CCN(c2noc3ccccc23)CC1)c1cnc2ccccn12
*A* -1

*Q* Repeat for the following compound: O=S(=O)(NCCCCN1CCN(c2cccc3c2OCCO3)CC1)c1cccc2ccccc12
*A* -1

*Q* Repeat for the following compound: O=S(=O)(NCCCN1CCN(c2cccc3c2OCCO3)CC1)c1ccc2ccccc2c1
*A* -1

*Q* Repeat for the following compound: O=C1COc2c(cccc2N2CCN(CCCCNS(=O)(=O)c3cccc(Cl)c3)CC2)N1
*A* -1

*Q* Repeat for the following compound: O=S(=O)(NCCCCN1CCN(c2noc3ccccc23)CC1)c1cccc(C(F)(F)F)c1
*A* -1

###

# target-system: serotoninergic 5-HT7 receptor (Homo sapiens)
# Sequence (P34969 whole entry): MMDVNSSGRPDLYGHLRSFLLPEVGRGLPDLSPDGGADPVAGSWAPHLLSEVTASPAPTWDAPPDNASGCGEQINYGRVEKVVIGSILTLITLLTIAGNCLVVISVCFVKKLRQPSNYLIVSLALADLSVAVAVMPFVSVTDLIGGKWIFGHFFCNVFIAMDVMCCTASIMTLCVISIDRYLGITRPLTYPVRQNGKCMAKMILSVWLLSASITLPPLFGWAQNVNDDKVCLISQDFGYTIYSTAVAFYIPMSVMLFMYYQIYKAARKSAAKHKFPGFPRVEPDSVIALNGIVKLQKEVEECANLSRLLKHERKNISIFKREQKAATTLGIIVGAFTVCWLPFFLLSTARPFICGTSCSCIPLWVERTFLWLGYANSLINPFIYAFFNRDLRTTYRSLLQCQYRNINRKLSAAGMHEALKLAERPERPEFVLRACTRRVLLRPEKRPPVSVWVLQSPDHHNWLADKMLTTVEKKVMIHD
# assay-remarks: Cellular functional assay, serotoninergic 5-HT7 receptor (agonism/antagonism)
# Type: cell-based
# assay-setup: read-out: 5-HT7-antag. [%]
metric-name: inhibition at 1 µM (%)
Give the number; % is assumed, so skip it.

O=S(=O)(NCCN1CCN(c2nsc3ccccc23)CC1)c1ccc2ccccc2c1    85
O=S(=O)(NCCCCN1CCN(c2noc3ccccc23)CC1)c1ccc(-c2ccccc2)cc1    93
O=S(=O)(NCCCCN1CCN(c2cccc3[nH]ccc23)CC1)c1cc2ccccc2s1    20
O=S(=O)(NCCCCN1CCN(c2cccc3[nH]ccc23)CC1)c1ccc(F)cc1    43
O=c1[nH]c2ccc(S(=O)(=O)NCCCCN3CCN(c4nsc5ccccc45)CC3)cc2o1    81

*Q* Give serotoninergic 5-HT7 receptor (Homo sapiens) inhibition at 1 µM for O=S(=O)(NCCN1CCC(c2noc3cc(F)ccc23)CC1)c1cccc2ccccc12
*A* 88

*Q* Repeat for the following compound: O=S(=O)(NCCCCN1CCN(c2noc3ccccc23)CC1)c1cc2ccc(Cl)cc2s1
*A* 92

*Q* Repeat for the following compound: Cc1cccc(S(=O)(=O)NCCCN2CCN(c3nsc4ccccc34)CC2)c1
*A* 98

*Q* Repeat for the following compound: O=S(=O)(NCCCN1CCC(c2noc3cc(F)ccc23)CC1)c1ccc2ccccc2c1
*A* 98

*Q* Repeat for the following compound: O=S(=O)(NCCCCN1CCN(c2cccc3[nH]ccc23)CC1)c1ccc(F)c(F)c1
*A* 9

*Q* Repeat for the following compound: Cc1cccc(S(=O)(=O)NCCN2CCN(c3nsc4ccccc34)CC2)c1
*A* 85

*Q* Repeat for the following compound: O=S(=O)(NCCCCN1CCN(c2cccc3[nH]ccc23)CC1)c1cccc(F)c1
*A* 23

*Q* Repeat for the following compound: O=S(=O)(NCCCCN1CCC(c2noc3cc(F)ccc23)CC1)c1ccc2cc(Cl)ccc2c1
*A* 100

*Q* Repeat for the following compound: O=c1[nH]c2ccc(S(=O)(=O)NCCN3CCN(c4nsc5ccccc45)CC3)cc2o1
*A* 68

*Q* Repeat for the following compound: O=S(=O)(NCCCCN1CCN(c2noc3ccccc23)CC1)c1cccc2ccccc12
*A* 95

*Q* Repeat for the following compound: O=S(=O)(NCCCCN1CCN(c2nsc3ccccc23)CC1)c1csc2ccccc12
*A* 98

*Q* Repeat for the following compound: N#Cc1cccc(S(=O)(=O)NCCCN2CCC(c3noc4cc(F)ccc34)CC2)c1
*A* 100

*Q* Repeat for the following compound: Cc1cccc(S(=O)(=O)NCCN2CCC(c3noc4cc(F)ccc34)CC2)c1
*A* 97

*Q* Repeat for the following compound: O=S(=O)(NCCCCN1CCN(c2nsc3ccccc23)CC1)c1cccc2ccccc12
*A* 97

*Q* Repeat for the following compound: O=S(=O)(NCCCCN1CCN(c2noc3ccccc23)CC1)c1c[nH]c2ncccc12
*A* 91

###

# target-system: dopaminergic D2 receptor (Homo sapiens)
# assay-remarks: Binding assay D2S (h), [3H]methyl-spiperone, HEK-293 cells
# Design: expressed in transfected cells; host or cells: HEK-293 cells
# assay-setup: read-out: D2 [%]
# Method: The specific ligand binding to the receptors is defined as the difference between the total binding and the nonspecific binding determined in the presence of an excess of so unlabelled ligand. The specific Ligand binding to the receptor is defined as the difference between total and non-specific binding determined in the presence of an excess of unlabelled ligand. The compounds were tested at a concentration of 1×10^−6 M, and scintillation counting was the method of detection of ligand binding.
metric-name: inhibition at 1 µM (%)
Give the number; % is assumed, so skip it.

Please review the following examples before continuing.
O=S(=O)(NCCCN1CCC(c2noc3cc(F)ccc23)CC1)c1cccc2scnc12    101
N#Cc1ccc(S(=O)(=O)NCCCCN2CCC(c3noc4cc(F)ccc34)CC2)cc1    88
O=S(=O)(NCCN1CC=C(c2c[nH]c3ccc(F)cc23)CC1)c1cccc(F)c1    97
O=S(=O)(NCCCN1CCN(c2nsc3ccccc23)CC1)c1ccc(Cl)cc1    97

*Q* Entry O=S(=O)(NCCCCN1CCN(c2nsc3ccccc23)CC1)c1ccc2c(c1)CCO2 : reported inhibition at 1 µM = ?
*A* 105

*Q* Repeat for the following molecule: O=S(=O)(NCCCCN1CCN(c2cccc3[nH]ccc23)CC1)c1ccc2ccccc2c1
*A* 97

*Q* Repeat for the following molecule: O=S(=O)(NCCCCN1CCC(c2noc3cc(F)ccc23)CC1)c1cccc2ccccc12
*A* 98

*Q* Repeat for the following molecule: N#Cc1cccc(S(=O)(=O)NCCCCN2CCN(c3cccc4[nH]ccc34)CC2)c1
*A* 101

*Q* Repeat for the following molecule: O=S(=O)(NCCCCN1CCN(c2noc3ccccc23)CC1)c1ccc(Br)cc1
*A* 96

###

# target-system: dopaminergic D2 receptor (Homo sapiens, UniProt P14416)
# Sequence (P14416 1-414 isoform P14416-2): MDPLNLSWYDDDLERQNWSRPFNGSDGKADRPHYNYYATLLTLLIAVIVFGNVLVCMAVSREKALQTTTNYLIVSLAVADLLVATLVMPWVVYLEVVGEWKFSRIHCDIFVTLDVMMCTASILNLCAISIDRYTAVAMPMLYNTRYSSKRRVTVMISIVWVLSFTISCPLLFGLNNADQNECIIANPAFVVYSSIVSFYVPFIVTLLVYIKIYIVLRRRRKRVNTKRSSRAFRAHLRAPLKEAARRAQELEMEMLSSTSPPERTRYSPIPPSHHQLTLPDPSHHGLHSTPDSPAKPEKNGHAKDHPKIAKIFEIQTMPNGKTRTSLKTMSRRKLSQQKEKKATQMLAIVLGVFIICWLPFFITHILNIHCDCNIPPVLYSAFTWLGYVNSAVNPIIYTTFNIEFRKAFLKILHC
# assay-remarks: Binding assay D2S (h), [3H]methyl-spiperone, HEK-293 cells
# Parameters: expressed in transfected cells; host or cells: HEK-293 cells
# assay-setup: read-out: D2 [%]
metric-name: inhibition at 1 µM (%)
Give the number; % is assumed, so skip it.

Please review the following examples before continuing.
Cc1[nH]c2ccc(Cl)cc2c1C1=CCN(CCCCNS(=O)(=O)c2ccc(Cl)cc2)CC1    97
O=S(=O)(NCCCCN1CCN(c2nsc3ccccc23)CC1)c1cc2ccccc2s1    102
O=S(=O)(NCCCCN1CCN(c2nsc3ccccc23)CC1)c1cccc2ccccc12    97
O=S(=O)(NCCCN1CCC(c2noc3cc(F)ccc23)CC1)c1cccc(Br)c1    109

Let us examine a further case.
*Q* Entry O=S(=O)(NCCCCN1CCC(c2noc3cc(F)ccc23)CC1)c1csc2ccccc12 : reported inhibition at 1 µM = ?
*A* 101
